test: Approximate solubility of solid state Form V at 25° C. and 50° C. (visual observation); format: physicochemical; conditions: organic solvent or mixture, thermodynamic from solid, SL4 2-Propanol, 50° C.

{"columns": ["COMPOUND", "solubility at 10 min"],
 "data": [
  ["Nc1nc(=O)n(-c2ccccc2Cl)c2nc(C(F)(F)F)ccc12 [solid state Form V]", "5000 to 10000 µg/mL"]
]}

###

assay: Bulk stability of crystalline forms; assay type: physicochemical; details: before stress, HPLC

{"columns": ["COMPOUND", "Initial purity (%)"],
 "data": [
  ["Nc1nc(=O)n(-c2ccccc2Cl)c2nc(C(F)(F)F)ccc12 [Form T]", 99.1],
  ["Nc1nc(=O)n(-c2ccccc2Cl)c2nc(C(F)(F)F)ccc12 [solid state Form V]", 98.9],
  ["Nc1nc(=O)n(-c2ccccc2Cl)c2nc(C(F)(F)F)ccc12 [Form A]", 99.0],
  ["Nc1nc(=O)n(-c2ccccc2Cl)c2nc(C(F)(F)F)ccc12 [substantially amorphous form]", 98.7],
  ["Nc1nc(=O)n(-c2ccccc2Cl)c2nc(C(F)(F)F)ccc12 [Form D]", 98.0]
]}

###

Measured final pH, listed per entry.
assay: Equilibrium solubility in FeSSIF and FaSSIF; assay type: physicochemical; conditions: FaSSIF, pH 6.5, 37° C., 24 hours
PROPERTY NAME: final pH

{"columns": ["COMPOUND", "MEASUREMENT"],
 "data": [
  ["Nc1nc(=O)n(-c2ccccc2Cl)c2nc(C(F)(F)F)ccc12 [Form C]", 6.6],
  ["Nc1nc(=O)n(-c2ccccc2Cl)c2nc(C(F)(F)F)ccc12 [Form F]", 6.6],
  ["Nc1nc(=O)n(-c2ccccc2Cl)c2nc(C(F)(F)F)ccc12 [Form D]", 6.6],
  ["Nc1nc(=O)n(-c2ccccc2Cl)c2nc(C(F)(F)F)ccc12 [Form T]", 6.5],
  ["Nc1nc(=O)n(-c2ccccc2Cl)c2nc(C(F)(F)F)ccc12 [substantially amorphous form]", 6.5],
  ["Nc1nc(=O)n(-c2ccccc2Cl)c2nc(C(F)(F)F)ccc12 [Form E]", 6.6],
  ["Nc1nc(=O)n(-c2ccccc2Cl)c2nc(C(F)(F)F)ccc12 [Form A]", 6.5],
  ["Nc1nc(=O)n(-c2ccccc2Cl)c2nc(C(F)(F)F)ccc12 [solid state Form V]", 6.5]
]}

###

experiment: Approximate solubility of solid state Form V at 25° C. and 50° C. (visual observation); type: physicochemical; conditions: organic solvent or mixture, thermodynamic from solid, SL5 Ethyl acetate, 50° C.

{"columns": ["COMPOUND", "solubility at 10 min"],
 "data": [
  ["Nc1nc(=O)n(-c2ccccc2Cl)c2nc(C(F)(F)F)ccc12 [solid state Form V]", "< 5000 µg/mL"]
]}

###

experiment: Equilibrium solubility in FeSSIF and FaSSIF; assay type: physicochemical; conditions: FeSSIF, pH 5.0, 37° C., 24 hours, target concentration 1 mg/mL, HPLC method 1 or 2 (footnote)
Solubility below 200 µg/mL gives no; Solubility at or above it gives yes.

{"columns": ["MOLECULE", "CAT"],
 "data": [
  ["Nc1nc(=O)n(-c2ccccc2Cl)c2nc(C(F)(F)F)ccc12 [Form C]", "no"],
  ["Nc1nc(=O)n(-c2ccccc2Cl)c2nc(C(F)(F)F)ccc12 [Form F]", "yes"],
  ["Nc1nc(=O)n(-c2ccccc2Cl)c2nc(C(F)(F)F)ccc12 [substantially amorphous form]", "yes"],
  ["Nc1nc(=O)n(-c2ccccc2Cl)c2nc(C(F)(F)F)ccc12 [solid state Form V]", "yes"],
  ["Nc1nc(=O)n(-c2ccccc2Cl)c2nc(C(F)(F)F)ccc12 [Form D]", "yes"],
  ["Nc1nc(=O)n(-c2ccccc2Cl)c2nc(C(F)(F)F)ccc12 [Form T]", "no"]
]}

Origin of values: patent US20260193254A1
